- System: SMN2 mRNA
- experiment.summary: RT-qPCR splicing assay, SMN2 canonical junction (CJ) mRNA
- Format: cell-based, human
- assay.context: Homo sapiens; Table 5 panel; canonical junction qPCR; compound concentration having 50% response in CJ decrease; read-out: SMN2 IC50 (decrease in CJ mRNA levels)
reported.endpoint: IC50

Worked examples follow.
Cc1cn2nc(-c3ccc4c(=O)n(C5CCNCC5)ccc4c3)cc(CC(=O)O)c2n1 | < 100 nM
Cc1cn2nc(-c3ccc4c(=O)n([C@@H]5CCNC6(CC6)C5)cnc4c3)cc(C)c2n1 | < 100 nM
Cc1cn2nc(-c3ccc4c(c3)CCN(C3CCNCC3)C4=O)cc2c(C)n1 | 100 to 1000 nM

Can you look up the measured IC50 of `Cc1cn2nc(-c3ccc4c(c3)CCN(C3CCN(C)CC3)C4=O)cc(C)c2n1` for me?
< 100 nM

====

- System: SMN2 mRNA
- experiment.summary: RT-qPCR splicing assay, SMN2 canonical junction (CJ) mRNA
- Type: cell-based, human
- assay.context: Table 5 panel; canonical junction qPCR; compound concentration having 50% response in CJ decrease; read-out: SMN2 IC50 (decrease in CJ mRNA levels)
pIC50: −log10 of the molar value.
reported.endpoint: pIC50

Quick check: pIC50 of Cc1cn2nc(-c3ccc4c(=O)n([C@@H]5CCNC6(CC6)C5)cnc4c3)cc(C)c2n1 [Compound 444] ?
> 7.00

====

- System: Target C
- experiment.summary: HiBiT protein abundance assay, Target C HiBiT K562 cell line
- Format: cell-based
- assay.context: Homo sapiens; HiBiT lytic detection, modified K562 cells, 24 hours, top dose 10 μM; read-out: Effect on protein abundance, Target C (IC50)
IC50 by entry:

CN1CCC(N(C)c2ccc3ncn(-c4cc(F)c5nn(C)cc5c4)c(=O)c3c2)CC1 | > 10 µM
Cn1cc2cc(-n3cnc4ccc(N5CCNCC5)cc4c3=O)cc(F)c2n1 | > 10 µM
Cc1c(O)c(-c2ncc3c(=O)n([C@@H]4C[C@H]5COC[C@@H](C4)N5)ccc3n2)cc2cn(C)nc12 | 0.1 to 1 µM

Proceed to the following item.
Target C / IC50 / `CNC12CCC(n3ccc4nc(-c5cc6cn(C)nc6c(C)c5O)ncc4c3=O)(CC1)C2` : value?
1 to 10 µM

====

- Tested on: Target C
- experiment.summary: HiBiT protein abundance assay, Target C (Promega Nano-Glo HiBiT Lytic Detection System, knock-in K562 cell line)
- Assay type: cell-based, human
- assay.context: Homo sapiens, K562, 24 h, HiBiT K562 cell line, 24 hours, top dose 10 μM; read-out: Effect on protein abundance, Target C (IC50 category)
Each entry below lists one item and its recorded IC50 value.

Consider the reported IC50 for these compounds:
Cc1c(O)c(-c2ncc3c(=O)n([C@@H]4C[C@@H](C)N[C@@H](C)C4)ccc3n2)cc2cn(C)nc12 [Compound 1453] | > 10 µM
Cn1cc2cc(-c3cc(F)c4c(=O)n(C5CCNC6(CC6)C5)ccc4c3)c(O)c(F)c2n1 (stereo not shown) [Compound 420] | 1 to 10 µM
CN1C2C=C(c3ccc4c(=O)n(-c5ccc6nn(C)cc6c5)cnc4c3)CC1CC2 (stereo not shown) [Compound 161] | > 10 µM

// below: IC50 requested for another compound
Lab note: need IC50 with Target C for entry Cc1cn2cc(-c3ccc4c(=O)n(C5CCNCC5)ncc4c3)cc(C(F)(F)F)c2n1 [Compound 262] , please look it up.
1 to 10 µM
